All figures here come from ChEMBL document CHEMBL1153944.

Test system: Cryptococcus neoformans
method_description: Antifungal activity against Cryptococcus neoformans by broth microdilution test
Format: functional, organism-based
log10 of IC50 values by entry
Note the log scale: values are log10 of IC50 expressed in µg/mL.

Recorded log10 of IC50, per entry:
CC1(C)O[C@@H]2[C@H](O1)[C@@H](Cn1cc(COc3ccc(Cl)cc3)nn1)O[C@H]2n1ccc(=O)[nH]c1=O : 1.48
CC1(C)O[C@@H]2[C@H](O1)[C@@H](Cn1cc(COc3ccccc3)nn1)O[C@H]2n1ccc(=O)[nH]c1=O : 0.60
CC1(C)O[C@@H]2[C@H](O1)[C@@H](Cn1cc(COc3ccc([N+](=O)[O-])cc3)nn1)O[C@H]2n1ccc(=O)[nH]c1=O : 1.15
CC1(C)O[C@@H]2[C@H](O1)[C@@H](Cn1cc(COC(=O)Cc3ccc(O)cc3)nn1)O[C@H]2n1ccc(=O)[nH]c1=O : 2.11

molecule Cc1ccccc1CC(=O)OCc1cn(C[C@H]2O[C@@H](n3ccc(=O)[nH]c3=O)[C@@H]3OC(C)(C)O[C@@H]32)nn1 , log10 of IC50 observed: 1.51

Lab note: CC1(C)O[C@@H]2[C@H](O1)[C@@H](Cn1cc(COC(=O)C(=O)c3ccccc3)nn1)O[C@H]2n1ccc(=O)[nH]c1=O gave log10 of IC50 of 1.20

// log10 of IC50 value for CC1(C)O[C@@H]2[C@H](O1)[C@@H](Cn1cc(COC(=O)CCl)nn1)O[C@H]2n1ccc(=O)[nH]c1=O : 2.10

Lab book: log10 of IC50 of Cc1cccc(OCc2cn(C[C@H]3O[C@@H](n4ccc(=O)[nH]c4=O)[C@@H]4OC(C)(C)O[C@@H]43)nn2)c1 noted as 0.90

Reported log10 of IC50 ( C[C@@H]([C@H](N)C(=O)N[C@H](C(=O)O)[C@H]1O[C@@H](n2ccc(=O)[nH]c2=O)[C@H](O)[C@@H]1O)[C@H](O)c1ccc(O)cn1 [NIKKOMYCIN] ) = 1.20

Lab book: log10 of IC50 of CC1(C)O[C@@H]2[C@H](O1)[C@@H](Cn1cc(COc3cccc4ccccc34)nn1)O[C@H]2n1ccc(=O)[nH]c1=O noted as 1.51

Looking up COc1ccc(OCc2cn(C[C@H]3O[C@@H](n4ccc(=O)[nH]c4=O)[C@@H]4OC(C)(C)O[C@@H]43)nn2)cc1 , I found its log10 of IC50 recorded as 1.54

----------
System: Benjaminiella poitrasii
method_description: Antifungal activity against Benjaminiella poitrasii at 4 ug/mL by standard broth microdilution technique
Format: functional
Reported inhibition at 4 µg/mL values follow for various compounds
Give the value, in units of %, as a plain number.

Known inhibition at 4 µg/mL results, listed for orientation:
CC1(C)O[C@@H]2[C@H](O1)[C@@H](Cn1cc(COc3cccc4ccccc34)nn1)O[C@H]2n1ccc(=O)[nH]c1=O : 32.4
CC1(C)O[C@@H]2[C@H](O1)[C@@H](Cn1cc(COC(=O)Cc3ccccc3)nn1)O[C@H]2n1ccc(=O)[nH]c1=O : 31.9

Lookup result for CC1(C)O[C@@H]2[C@H](O1)[C@@H](Cn1cc(COc3ccc(Cl)cc3)nn1)O[C@H]2n1ccc(=O)[nH]c1=O ; measured inhibition at 4 µg/mL: 34.6

Query CC1(C)O[C@@H]2[C@H](O1)[C@@H](Cn1cc(COC(=O)COc3ccccc3)nn1)O[C@H]2n1ccc(=O)[nH]c1=O yields inhibition at 4 µg/mL of 56.2

Data point: CC1(C)O[C@@H]2[C@H](O1)[C@@H](Cn1cc(COC(=O)C(=O)c3ccccc3)nn1)O[C@H]2n1ccc(=O)[nH]c1=O ; inhibition at 4 µg/mL = 51.5

Consider CC1(C)O[C@@H]2[C@H](O1)[C@@H](Cn1cc(COc3ccc([N+](=O)[O-])cc3)nn1)O[C@H]2n1ccc(=O)[nH]c1=O . Its measured inhibition at 4 µg/mL is 17.4

The reported inhibition at 4 µg/mL of the compound CC1(C)O[C@@H]2[C@H](O1)[C@@H](Cn1cc(COc3ccc(F)cc3)nn1)O[C@H]2n1ccc(=O)[nH]c1=O was 9.43

# inhibition at 4 µg/mL (compound: C[C@@H]([C@H](N)C(=O)N[C@H](C(=O)O)[C@H]1O[C@@H](n2ccc(=O)[nH]c2=O)[C@H](O)[C@@H]1O)[C@H](O)c1ccc(O)cn1 ) is 45.5

Entry Cc1ccccc1CC(=O)OCc1cn(C[C@H]2O[C@@H](n3ccc(=O)[nH]c3=O)[C@@H]3OC(C)(C)O[C@@H]32)nn1 — recorded inhibition at 4 µg/mL = 27.3

Query CC1(C)O[C@@H]2[C@H](O1)[C@@H](Cn1cc(COC(=O)Cc3ccc(O)cc3)nn1)O[C@H]2n1ccc(=O)[nH]c1=O yields inhibition at 4 µg/mL of 28.2

So, CC1(C)O[C@@H]2[C@H](O1)[C@@H](Cn1cc(COC(=O)CCl)nn1)O[C@H]2n1ccc(=O)[nH]c1=O ? Its inhibition at 4 µg/mL was 30.2

So for CC1(C)O[C@@H]2[C@H](O1)[C@@H](Cn1cc(COC(=O)Cc3ccc(Cl)cc3Cl)nn1)O[C@H]2n1ccc(=O)[nH]c1=O , the logged inhibition at 4 µg/mL turned out to be 38.6

Kindly note the recorded inhibition at 4 µg/mL for CC1(C)O[C@@H]2[C@H](O1)[C@@H](Cn1cc(COc3ccccc3)nn1)O[C@H]2n1ccc(=O)[nH]c1=O , which is 21.5

Briefly, inhibition at 4 µg/mL measured for COc1ccc(OCc2cn(C[C@H]3O[C@@H](n4ccc(=O)[nH]c4=O)[C@@H]4OC(C)(C)O[C@@H]43)nn2)cc1 : 29.3

Data point: Cc1cccc(OCc2cn(C[C@H]3O[C@@H](n4ccc(=O)[nH]c4=O)[C@@H]4OC(C)(C)O[C@@H]43)nn2)c1 ; inhibition at 4 µg/mL = 34.4

----------
Listed compounds paired with reported inhibition
Tested on: Benjaminiella poitrasii
method_description: Inhibition of chitin synthase activity in Benjaminiella poitrasii at 4 ug/mL
# output: bare number, implied unit %

Worked cases, answers included:
CC1(C)O[C@@H]2[C@H](O1)[C@@H](Cn1cc(COC(=O)C(=O)c3ccccc3)nn1)O[C@H]2n1ccc(=O)[nH]c1=O : 80
CC1(C)O[C@@H]2[C@H](O1)[C@@H](Cn1cc(COc3ccc(F)cc3)nn1)O[C@H]2n1ccc(=O)[nH]c1=O : 84.1
CC1(C)O[C@@H]2[C@H](O1)[C@@H](Cn1cc(COC(=O)Cc3ccccc3)nn1)O[C@H]2n1ccc(=O)[nH]c1=O : 71

So for CC1(C)O[C@@H]2[C@H](O1)[C@@H](Cn1cc(COc3cccc4ccccc34)nn1)O[C@H]2n1ccc(=O)[nH]c1=O , the logged inhibition turned out to be 76.9

// sample CC1(C)O[C@@H]2[C@H](O1)[C@@H](Cn1cc(COC(=O)COc3ccccc3)nn1)O[C@H]2n1ccc(=O)[nH]c1=O , its inhibition was 74

Measured inhibition, CC1(C)O[C@@H]2[C@H](O1)[C@@H](Cn1cc(COC(=O)Cc3ccc(Cl)cc3Cl)nn1)O[C@H]2n1ccc(=O)[nH]c1=O : 67

# compound Cc1ccccc1CC(=O)OCc1cn(C[C@H]2O[C@@H](n3ccc(=O)[nH]c3=O)[C@@H]3OC(C)(C)O[C@@H]32)nn1 ; its inhibition = 36.4

----------
Here the recorded inhibition at 4 µg/mL is given for each entry.
System: Benjaminiella poitrasii
method_description: Antifungal activity against Benjaminiella poitrasii assessed as inhibition of germ tube formation at 4 ug/mL after 6 hrs
Assay type: functional
Number in %, nothing else.

Reference set, count: 5
CC1(C)O[C@@H]2[C@H](O1)[C@@H](Cn1cc(COC(=O)Cc3ccccc3)nn1)O[C@H]2n1ccc(=O)[nH]c1=O : 75
CC1(C)O[C@@H]2[C@H](O1)[C@@H](Cn1cc(COC(=O)CCl)nn1)O[C@H]2n1ccc(=O)[nH]c1=O : 60
Cc1cccc(OCc2cn(C[C@H]3O[C@@H](n4ccc(=O)[nH]c4=O)[C@@H]4OC(C)(C)O[C@@H]43)nn2)c1 : 69.2
CC1(C)O[C@@H]2[C@H](O1)[C@@H](Cn1cc(COC(=O)Cc3ccc(Cl)cc3Cl)nn1)O[C@H]2n1ccc(=O)[nH]c1=O : 57.1
CC1(C)O[C@@H]2[C@H](O1)[C@@H](Cn1cc(COc3ccc([N+](=O)[O-])cc3)nn1)O[C@H]2n1ccc(=O)[nH]c1=O : 78.2

Note to self: inhibition at 4 µg/mL recorded for CC1(C)O[C@@H]2[C@H](O1)[C@@H](Cn1cc(COC(=O)Cc3ccc(O)cc3)nn1)O[C@H]2n1ccc(=O)[nH]c1=O was 61.5

Entry CC1(C)O[C@@H]2[C@H](O1)[C@@H](Cn1cc(COc3ccccc3)nn1)O[C@H]2n1ccc(=O)[nH]c1=O , inhibition at 4 µg/mL reported as 45.1
